Target: T1, Mcl-1, Q07820
T1 chain: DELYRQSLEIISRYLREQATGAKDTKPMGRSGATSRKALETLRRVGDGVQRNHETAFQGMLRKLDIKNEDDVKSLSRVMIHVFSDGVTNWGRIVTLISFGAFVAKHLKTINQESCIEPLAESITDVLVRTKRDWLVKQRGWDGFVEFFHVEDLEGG
Assay: peptide SPOT array, c-Myc-tagged receptor at 1 uM or 100 nM, anti-c-Myc-Cy3
recordedEndpoint: SPOT signal as a fraction of Bim BH3's signal on the same receptor and array

Below are worked cases with known answers.
**Query** What measured SPOT signal as a fraction of Bim BH3's signal on the same receptor and array goes with FVQVASAASALKDVSYKIYDDENQKI [NXF5] ?
**Result** 0.02

**Query** What measured SPOT signal as a fraction of Bim BH3's signal on the same receptor and array goes with SMRRNAMGVGLVFELDLFTTRHISHW [DNAH10] ?
**Result** 0.18

**Query** What measured SPOT signal as a fraction of Bim BH3's signal on the same receptor and array goes with TVATRRLSGFLRTLLDRLEGTKELLS [MINA] ?
**Result** 0.29

A: GGRVKLVHSADIQLGDSLSHKGNEFW [WDR60]
B: TGSLCEIATTLSFEGDGFLWVKSGSV [CRB1]
C: SPYVFNGGTILAIALEDFAIVASDTR [PSMB1]
D: RVSWNITGTVLASSGDDGCVRLWKAN [SEH1L]
**Query** Please list these binders in decreasing order of SPOT signal as a fraction of Bim BH3's signal on the same receptor and array. Answer format: list of labels, ordered as asked.
**Result** A, D, B, C
(A: 0.23, D: 0.08, B: 0.04, C: 0.01)
